I'd be grateful if you could share measured Potency for these entries.
# run_description: qHTS of pediatric cancer cell lines to identify multiple opportunities for drug repurposing: Primary screen for A673 cells (AID 1347092); further: potency means the concentration at half of the fitted maximal effect; nearly all actives have a fitted effect of over 45% in size
# condition_context: A673 Ewing sarcoma viability, CellTiter-Glo ATP luminescence, 48 h; series mostly up to 46 µM
Results filed as inconclusive are left out. Activity calls are given as the source filed them. The call rests on the fitted dose curve; in most records, active means well fitted cell-killing curve with a large enough effect; inconclusive means small, poorly fitted or top-dose-only effect; inactive means no such curve, though single readings can be large or run the other way.

Entry COc1cc(Nc2ncc(F)c(Nc3ccc4c(n3)N(COP(=O)(O)O)C(=O)C(C)(C)O4)n2)cc(OC)c1OC ; Potency = 2.96 µM (active)

For C[C@]12CC[C@H](O)CC1=CCC1C2CC[C@]2(C)C(n3cnc4ccccc43)=CCC12 (some centres undefined) the compound record lists Potency as 14.8 µM (active)

Quick note, Potency for COC(=O)c1ccc2c(C(=Nc3ccc(N(C)C(=O)CN4CCN(C)CC4)cc3)c3ccccc3)c(O)[nH]c2c1 landed at 0.296 µM (active)

Per the records, this compound ( COc1cc(OC2CCN(C)CC2)ccc1Nc1ncc2c(n1)n(C1CCCC1)c(=O)n2C ) has Potency equal to 14.8 µM (active)

Short answer for O=C(O)c1ccc2c(c1)nc(Nc1cccc(Cl)c1)c1ccncc12 : Potency was 4.69 µM (active)

Recorded result, CCS(=O)(=O)c1cccc(-c2cc(C(=O)NC3CCN(C)CC3)c(C)c3[nH]c4ncc(C)cc4c23)c1 , Potency: 0.743 µM (active)

The reported value for Cc1nc2ccc(CN(C)c3ccc(C(=O)N[C@@H](CCC(=O)O)C(=O)O)s3)cc2c(=O)[nH]1 in terms of Potency is 0.059 µM (active)

Data point: COc1cc(C(=O)N2CCC(N3CCN(C)CC3)CC2)ccc1Nc1ncc2c(n1)N(C)c1ccccc1C(=O)N2C ; Potency = 11.8 µM (active)

---

# Test system: MKL-2
# run_description: qHTS assay to identify novel small-molecules to repurpose for Merkel cell carcinoma treatment (AID 1296009); further: nearly all actives have a fitted effect of over 60% in size
# condition_context: MCC and control cell lines, CellTiter-Glo viability, 72 h; series mostly up to 46 µM
Results filed as inconclusive are left out. Calls of active or inactive are those of the source. Calls come from the whole dose curve; as a rule, active = well fitted inhibition curve with a large enough effect; inconclusive = small, poorly fitted or top-dose-only effect; inactive = flat fitted curve, though single readings scatter.
Permitted responses: active, inactive

Field: outcome | Entry: CN1CCN(Cc2ccc(NC(=O)Nc3ccc(Oc4cc(NC(=O)C5CC5)ncn4)cc3)cc2C(F)(F)F)CC1 active

Which outcome was assigned to CC(=O)OCC(=O)[C@@]1(O)[C@H](C)C[C@H]2[C@@H]3C=C(C)C4=Cc5c(cnn5-c5ccccc5)C[C@]4(C)[C@@H]3[C@@H](O)C[C@@]21C in this test? active

Test call, this compound: CNC(=O)c1nn(C)c2c1C(C)(C)Cc1cnc(Nc3ccc(N4CCN(C)CC4)cc3)nc1-2 active

Could you check what this test reported for CCCCCCCCCC(=O)N[C@@H](Cc1c[nH]c2ccccc12)C(=O)N[C@H](CC(N)=O)C(=O)N[C@@H](CC(=O)O)C(=O)N[C@@H]1C(=O)NCC(=O)N[C@@H](CCCN)C(=O)N[C@@H](CC(=O)O)C(=O)N[C@H](C)C(=O)N[C@@H](CC(=O)O)C(=O)NCC(=O)N[C@H](CO)C(=O)N[C@@H]([C@@H](C)CC(=O)O)C(=O)N[C@@H](CC(=O)c2ccccc2N)C(=O)O[C@@H]1C ? inactive

// return assay outcome for CCN1CCN(Cc2ccc(-c3cc4c(N[C@H](C)c5ccccc5)ncnc4[nH]3)cc2)CC1 active

I would be grateful if you could indicate the recorded call for O=C(O)CCCc1c[nH]c2ccccc12 . inactive
